Cited source for all entries: patent US20230151068A1

# system: biotinylated His-Avi-TEAD (194-411) (UniProt P28347)
# assay protocol: SSM screen, enrichment after two rounds of sorting
The following binders are listed with their measured enrichment score values.
recorded endpoint: enrichment score

binder="GSPDEMIERAKECCKKGDIQCCLRYFEESGDPNVMLICLFCP (designed binder) [Y04M variant of SEQ ID NO: 1]" recorded_endpoint="enrichment score" result_number=-0.68
binder="GSPDEYIERAKKCCKKGDIQCCLRYFEESGDPNVMLICLFCP (designed binder) [E10K variant of SEQ ID NO: 1]" recorded_endpoint="enrichment score" result_number=-2.3
binder="GSPDEYIERAKECCKKGDIVCCLRYFEESGDPNVMLICLFCP (designed binder) [Q18V variant of SEQ ID NO: 1]" recorded_endpoint="enrichment score" result_number=-0.77
